Tested on: pigweed, palmer
Assay: Test C preemergence
Assay type: in vivo, Amaranthus palmeri
Details: Preemergence, 125 g ai/ha; 0 to 100 scale, 0 no effect, 100 complete control
MEASURED PARAMETER: Plant response rating, Pigweed, Palmer

> print(dat)
                                    compound  target.of.assay                      measured.parameter  numeric.readout
 1  CCOCC1CN(C(=O)c2cc(-n3cnc(C4CCC4)n3)ccc2OC)c2cccc(Cl)c2O1 (stereo not shown)  pigweed, palmer  Plant response rating, Pigweed, Palmer              100
 2  CCOC[C@H]1CN(C(=O)c2cc(-n3cnc(C(C)C)n3)cc3c2OCO3)c2cccc(Cl)c2O1  pigweed, palmer  Plant response rating, Pigweed, Palmer              100
 3  Cc1ncn(-c2cc(C(=O)N3CC(C(F)(F)F)Oc4c(Cl)cccc43)ccn2)n1 (stereo not shown)  pigweed, palmer  Plant response rating, Pigweed, Palmer               50
 4  Cc1cccc2c1OC(C(F)(F)F)CN2C(=O)c1cccc(-n2cnc(C(C)(C)C)n2)c1 (stereo not shown)  pigweed, palmer  Plant response rating, Pigweed, Palmer               80
 5  CCOC[C@H]1CN(C(=O)c2cc(-n3cnc(C(C)(C)C)n3)cc3c2OCCO3)c2cccc(Cl)c2O1  pigweed, palmer  Plant response rating, Pigweed, Palmer              100
 6  CC(C)c1ncn(-c2cccc(C(=O)N3CC(C(F)(F)F)Oc4c(Cl)cccc43)c2)n1 (stereo not shown)  pigweed, palmer  Plant response rating, Pigweed, Palmer              100
 7  Cc1cccc2c1OC(C(F)(F)F)CN2C(=O)c1ccnc(-n2cnc(C(C)C)n2)c1 (stereo not shown)  pigweed, palmer  Plant response rating, Pigweed, Palmer               50
 8  CC(C)c1ncn(-c2cc(C(=O)N3CC(C(F)(F)F)Oc4c(Cl)cccc43)ccn2)n1 (racemic) [Compound 329]  pigweed, palmer  Plant response rating, Pigweed, Palmer               90
 9  CC(=O)c1ncn(-c2ccc(C)c(C(=O)N3C[C@H](C)Oc4c(Cl)cccc43)c2)n1  pigweed, palmer  Plant response rating, Pigweed, Palmer               30
10  CCOCC1CN(C(=O)c2cc(-n3cnc(CC)n3)ccc2OC)c2cccc(Cl)c2O1 (stereo not shown)  pigweed, palmer  Plant response rating, Pigweed, Palmer              100
11  Cc1ccc(-n2cnc(C(C)(C)C#N)n2)cc1C(=O)N1C[C@H](C)Oc2c(Cl)cccc21  pigweed, palmer  Plant response rating, Pigweed, Palmer              100
12  COC(C)c1ncn(-c2ccc(C)c(C(=O)N3CC(C)Oc4c(Cl)cccc43)c2)n1 (mixture of isomers)  pigweed, palmer  Plant response rating, Pigweed, Palmer               90
13  Cc1ncn(-c2ccc(F)c(C(=S)N3C[C@H](C)Oc4c(C)cccc43)c2)n1  pigweed, palmer  Plant response rating, Pigweed, Palmer               90
14  Cc1cccc2c1O[C@@H](C)CN2C(=O)c1cc(-n2cnc(C(C)C)n2)cc2c1CCO2  pigweed, palmer  Plant response rating, Pigweed, Palmer              100
15  CCOC[C@H]1CN(C(=O)c2cc(-n3cnc(C(C)(C)C)n3)cc3c2OCO3)c2cccc(Cl)c2O1  pigweed, palmer  Plant response rating, Pigweed, Palmer              100
16  CC(C)c1ncn(-c2cc(C(=O)N3CC(C(F)(F)F)Oc4c(Cl)cccc43)ccn2)n1 (single isomer, unassigned) [Compound 330]  pigweed, palmer  Plant response rating, Pigweed, Palmer              100

* * *

Tested on: pigweed, palmer
Assay: Test C preemergence
Assay type: in vivo, Amaranthus palmeri
Conditions: 500 g ai/ha, preemergence; 0 to 100 scale (0 no effect, 100 complete control)
MEASURED PARAMETER: Pigweed, Palmer plant response rating

> print(dat)
                                    molecule  result
 1  CCOC[C@H]1CN(C(=O)c2cc(-n3cnc(C(C)(C)C)n3)cc3c2OCO3)c2cccc(Cl)c2O1     100
 2  CC(C)c1ncn(-c2cc(C(=O)N3CC(C(F)(F)F)Oc4c(Cl)cccc43)ccn2)n1 (single isomer, unassigned)     100
 3  Cc1ccc(-n2cnc(CC3CC3)n2)cc1C(=O)N1C[C@H](C)Oc2c(Cl)cccc21     100
 4  Cc1ccc(-n2cnc(C3(C)COC3)n2)cc1C(=O)N1C[C@H](C)Oc2c(Cl)cccc21     100
 5  CCOCC1CN(C(=O)c2cc(-n3cnc(C(C)(C)C)n3)ccc2OC)c2cccc(Cl)c2O1 (stereo not shown)     100
 6  CC(C)c1ncn(-c2cc(C(=O)N3C[C@H](C)Oc4c(Cl)cccc43)cnn2)n1     100
 7  CNc1ncn(-c2cccc(C(=O)N3C[C@H](C)Oc4c(C)cccc43)c2)n1     100
 8  Cc1ncn(-c2cc(C(=O)N3CC(C(F)(F)F)Oc4c(Cl)cccc43)ccn2)n1 (stereo not shown)     100
 9  Cc1ccc(-n2cnc(C3(C#N)CC3)n2)cc1C(=O)N1C[C@H](C)Oc2c(Cl)cccc21     100
10  CCOC[C@H]1CN(C(=O)c2cc(-n3cnc(C(C)C)n3)ccc2OC)c2cccc(Cl)c2O1     100
11  CCOC(=O)c1ncn(-c2ccc(C)c(C(=O)N3C[C@H](C)Oc4c(Cl)cccc43)c2)n1      70
12  Cc1cccc2c1O[C@@H](C)CN2C(=O)c1cccc(-n2cnc(N)n2)c1      80
13  CC(=O)c1ncn(-c2ccc(C)c(C(=O)N3C[C@H](C)Oc4c(Cl)cccc43)c2)n1      90
14  CCc1ncn(-c2cc(C(=O)N3CC(C(F)(F)F)Oc4c(C)cccc43)ccn2)n1 (stereo not shown)      90
15  Cc1nnc(-c2cccc(C(=O)N3C[C@H](C)Oc4c(Cl)cccc43)c2)o1       0
16  Cc1ccc(-n2cnc(CS(C)(=N)=O)n2)cc1C(=O)N1C[C@H](C)Oc2c(Cl)cccc21 (stereo partly shown)     100

* * *

System: blackgrass
Test: Test A postemergence
Type: in vivo, Alopecurus myosuroides
Conditions: 125 g ai/ha, postemergence, 10 days, visual injury, 0 to 100 scale (0 no effect, 100 complete control)
The label is yes for Plant response rating, Blackgrass below 30 and no for Plant response rating, Blackgrass equal to or exceeding 30.

> print(dat)
                                   molecule  cat
1  CCc1ncn(-c2ccc(C)c(C(=O)N3C[C@H](C)Oc4c(Cl)cccc43)c2)n1   no
2  C[C@H]1CN(C(=O)c2cccc(-n3cncn3)c2)c2cccc(OC(F)(F)F)c2O1  yes
3  Cc1cccc2c1O[C@@H](C)CN2C(=O)c1cccc(-n2cnc(C3CCC3)n2)c1   no
4  CCc1cccc2c1OC(C)CN2C(=O)c1cccc(-n2cncn2)c1 (stereo not shown)  yes
5  CCc1ccc(-n2cncn2)cc1C(=O)N1C[C@H](C)Oc2c(Cl)cccc21   no
6  Cc1cccc2c1O[C@@H](C)CN2C(=O)c1cc(-n2cncn2)ccc1F   no
7  C[C@H]1CN(C(=O)c2cccc(-n3cncn3)c2)c2cccc(C(F)(F)F)c2O1  yes
8  Cc1cccc2c1O[C@@H](C)CN2C(=O)c1cccc(-n2cnc(C(C)C)n2)c1   no

* * *

System: kochia
Assay: Test C postemergence
Format: in vivo, Bassia scoparia
Conditions: 500 g ai/ha, postemergence, 10 days, 0 to 100 scale (0 no effect, 100 complete control)
Rule: Plant response rating, Kochia under 70 gives 0.0, otherwise 1.0.

> print(dat)
                                    compound  target.of.assay  cat
 1  Cc1ccc(-n2cnc(C3(C#N)CCC3)n2)cc1C(=O)N1C[C@H](C)Oc2c(Cl)cccc21           kochia  1.0
 2  Cc1cccc2c1O[C@@H](C)CN2C(=O)c1cccc(-n2cnc(C#C[Si](C)(C)C)n2)c1           kochia  0.0
 3  CC(C)Oc1ncn(-c2cccc(C(=O)N3C[C@H](C)Oc4c(Cl)cccc43)c2)n1           kochia  1.0
 4  CC(C)c1ncn(-c2ccc(OS(C)(=O)=O)c(C(=O)N3C[C@H](C)Oc4c(Cl)cccc43)c2)n1           kochia  1.0
 5  CCOCc1ncn(-c2ccc(C)c(C(=O)N3C[C@H](C)Oc4c(Cl)cccc43)c2)n1           kochia  0.0
 6  CCc1ncn(-c2ccc(C)c(C(=O)N3CC(C(F)(F)F)Oc4c(Cl)cccc43)c2)n1 (racemic)           kochia  1.0
 7  CCOCC1CN(C(=O)c2cc(-n3cnc(C4CCC4)n3)ccc2OC)c2cccc(Cl)c2O1 (stereo not drawn)           kochia  1.0
 8  Cc1ccc(-n2cnc(C(C)C)n2)cc1C(=O)N1CC(C(F)(F)F)Oc2c(Cl)cccc21 (single isomer, unassigned)           kochia  1.0
 9  COC[C@H]1CN(C(=O)c2cc(-n3cnc(C(C)(C)O)n3)ccc2OC)c2cccc(Cl)c2O1           kochia  1.0
10  CCOC[C@H]1CN(C(=O)c2cc(-n3cnc(C(C)C)n3)cc3c2OCCO3)c2cccc(Cl)c2O1           kochia  1.0
11  CC(C)c1cc(C(=O)N2C[C@H](C)Oc3c(Cl)cccc32)cc(-n2cncn2)c1           kochia  1.0
12  CC1Oc2ccccc2N(C(=O)c2cccc(-n3cncn3)c2)C1C (stereo not drawn)           kochia  0.0
